- System: Streptococci
- Protocol Text: Broth microdilution MIC, Streptococci (Example 11, Table 7)
- Type: cell-based
- Cond: S. dysgalactiae MMX 5123
Measured Attribute: MIC (µg/mL)
Supply the numeric figure in µg/mL, leaving out any unit text.

Which value of MIC has been reported for CN[C@H](CC(C)C)C(=O)N[C@H]1C(=O)N[C@@H](CC(N)=O)C(=O)N[C@H]2C(=O)N[C@H]3C(=O)N[C@H](C(=O)N[C@H](C(=O)O)c4cc(O)cc(O)c4-c4cc3ccc4O)[C@H](O)c3ccc(c(Cl)c3)Oc3cc2cc(c3O[C@@H]2O[C@H](CO)[C@@H](O)[C@H](O)[C@H]2O[C@H]2C[C@](C)(N)[C@H](O)[C@H](C)O2)Oc2ccc(cc2Cl)[C@H]1O in the records?
0.5

Any idea what MIC was measured for CCCCCCCCCCNCCN[C@@]1(C)C[C@H](O[C@H]2[C@H](Oc3c4cc5cc3Oc3ccc(cc3Cl)[C@@H](O)[C@@H](NC(=O)[C@@H](CC(C)C)NC)C(=O)N[C@@H](CC(N)=O)C(=O)N[C@H]5C(=O)N[C@H]3C(=O)N[C@H](C(=O)N[C@H](C(=O)O)c5cc(O)c(CNCP(=O)(O)O)c(O)c5-c5cc3ccc5O)[C@H](O)c3ccc(c(Cl)c3)O4)O[C@H](CO)[C@@H](O)[C@@H]2O)O[C@@H](C)[C@H]1O ?
0.25

Query (molecule): CCCCCCCCCCNC1(C)CC(OC2C(Oc3c4cc5cc3Oc3ccc(cc3Cl)C(O)C3NC(=O)C(NC(=O)C5NC(=O)C(CC(N)=O)NC(=O)C(NC(=O)C(CC(C)C)NC)C(O)c5ccc(c(Cl)c5)O4)c4ccc(O)c(c4)-c4c(O)cc(O)cc4C(C(=O)O)NC3=O)OC(CO)C(O)C2O)OC(C)C1O (stereo not drawn) ; field requested: MIC
0.03

* * *

- Tested on: Streptococci
- Protocol Text: Broth microdilution MIC, Streptococci (Example 11, Table 7)
- Type: cell-based
- Cond: S. dysgalactiae MMX 5123
Measured Attribute: MIC

Consider the molecule shown here: CN[C@H](CC(C)C)C(=O)N[C@H]1C(=O)N[C@@H](CC(N)=O)C(=O)N[C@H]2C(=O)N[C@H]3C(=O)N[C@H](C(=O)N[C@H](C(=O)O)c4cc(O)cc(O)c4-c4cc3ccc4O)[C@H](O[C@H]3C[C@](C)(N)[C@@H](O)[C@H](C)O3)c3ccc(c(Cl)c3)Oc3cc2cc(c3O[C@@H]2O[C@H](CO)[C@@H](O)[C@H](O)[C@H]2O[C@H]2C[C@](C)(NCc3ccc(-c4ccc(Cl)cc4)cc3)[C@@H](O)[C@H](C)O2)Oc2ccc(cc2Cl)[C@H]1O What is its recorded MIC?
2 µg/mL

Which value of MIC has been reported for CN(C)c1cc(NC(=O)CNC(C)(C)C)c(O)c2c1C[C@H]1C[C@H]3[C@H](N(C)C)C(O)=C(C(N)=O)C(=O)[C@@]3(O)C(O)=C1C2=O in the records?
0.015 µg/mL

For the molecule CC(=O)NC[C@H]1CN(c2ccc(N3CCOCC3)c(F)c2)C(=O)O1 , what MIC is on record?
1 µg/mL

* * *

- System: Streptococci
- Protocol Text: Broth microdilution MIC, Streptococci (Example 11, Table 7)
- Type: cell-based
- Cond: S. pyogenes MMX 8778
Please provide measured MIC for the entries that follow.

Any idea what its MIC is? The compound is CC(=O)NC[C@H]1CN(c2ccc(N3CCOCC3)c(F)c2)C(=O)O1 [Linezolid]
1 µg/mL

Any idea what its MIC is? The compound is CCCCCCCCCCNCCN[C@@]1(C)C[C@H](O[C@H]2[C@H](Oc3c4cc5cc3Oc3ccc(cc3Cl)[C@@H](O)[C@@H](NC(=O)[C@@H](CC(C)C)NC)C(=O)N[C@@H](CC(N)=O)C(=O)N[C@H]5C(=O)N[C@H]3C(=O)N[C@H](C(=O)N[C@H](C(=O)O)c5cc(O)c(CNCP(=O)(O)O)c(O)c5-c5cc3ccc5O)[C@H](O)c3ccc(c(Cl)c3)O4)O[C@H](CO)[C@@H](O)[C@@H]2O)O[C@@H](C)[C@H]1O [Telavancin]
0.06 µg/mL

* * *

- Tested on: Streptococci
- Protocol Text: Broth microdilution MIC, Streptococci (Example 11, Table 7)
- Type: cell-based
- Cond: S. constellatus (AGS) MMX 5677
Provide the reported MIC of each item.
Report the figure in µg/mL without appending any unit label.

Which measured MIC value corresponds to CCCCCCCCCCNCCN[C@@]1(C)C[C@H](O[C@H]2[C@H](Oc3c4cc5cc3Oc3ccc(cc3Cl)[C@@H](O)[C@@H](NC(=O)[C@@H](CC(C)C)NC)C(=O)N[C@@H](CC(N)=O)C(=O)N[C@H]5C(=O)N[C@H]3C(=O)N[C@H](C(=O)N[C@H](C(=O)O)c5cc(O)c(CNCP(=O)(O)O)c(O)c5-c5cc3ccc5O)[C@H](O)c3ccc(c(Cl)c3)O4)O[C@H](CO)[C@@H](O)[C@@H]2O)O[C@@H](C)[C@H]1O [Telavancin] ?
0.03

Given CCCCCCCCCCNC1(C)CC(OC2C(Oc3c4cc5cc3Oc3ccc(cc3Cl)C(O)C3NC(=O)C(NC(=O)C5NC(=O)C(CC(N)=O)NC(=O)C(NC(=O)C(CC(C)C)NC)C(O)c5ccc(c(Cl)c5)O4)c4ccc(O)c(c4)-c4c(O)cc(O)cc4C(C(=O)O)NC3=O)OC(CO)C(O)C2O)OC(C)C1O (stereo not drawn) [Compound 5, N-decyl vancomycin] , state its recorded MIC.
0.03

* * *

Hi there, I'd appreciate the recorded MIC for every entry that follows.
Note: a bare number is incomplete; add the unit.

Test system S. haemolyticus (CoNS); read-out MIC; what value for CC(=O)NC[C@H]1CN(c2ccc(N3CCOCC3)c(F)c2)C(=O)O1 [Linezolid] ?
0.5 µg/mL

Lab request: please report MIC under test system S. haemolyticus (CoNS) for CCCCCCCCCCNC1(C)CC(OC2C(Oc3c4cc5cc3Oc3ccc(cc3Cl)C(O)C3NC(=O)C(NC(=O)C5NC(=O)C(CC(N)=O)NC(=O)C(NC(=O)C(CC(C)C)NC)C(O)c5ccc(c(Cl)c5)O4)c4ccc(O)c(c4)-c4c(O)cc(O)cc4C(C(=O)O)NC3=O)OC(CO)C(O)C2O)OC(C)C1O (stereo not drawn) [Compound 5, N-decyl vancomycin]
0.06 µg/mL

Param readout= MIC; system= S. haemolyticus (CoNS); entry= CN[C@H](CC(C)C)C(=O)N[C@H]1C(=O)N[C@@H](CC(N)=O)C(=O)N[C@H]2C(=O)N[C@H]3C(=O)N[C@H](C(=O)N[C@H](C(=O)O)c4cc(O)cc(O)c4-c4cc3ccc4O)[C@H](O)c3ccc(c(Cl)c3)Oc3cc2cc(c3O[C@@H]2O[C@H](CO)[C@@H](O)[C@H](O)[C@H]2O[C@H]2C[C@](C)(N)[C@H](O)[C@H](C)O2)Oc2ccc(cc2Cl)[C@H]1O [Vancomycin] ; returns value.
1 µg/mL

Enter reported MIC observed with S. haemolyticus (CoNS) for CN(C)c1cc(NC(=O)CNC(C)(C)C)c(O)c2c1C[C@H]1C[C@H]3[C@H](N(C)C)C(O)=C(C(N)=O)C(=O)[C@@]3(O)C(O)=C1C2=O [Tigecycline]
0.06 µg/mL

Give the reported MIC for CCCCCCCCCCNCCN[C@@]1(C)C[C@H](O[C@H]2[C@H](Oc3c4cc5cc3Oc3ccc(cc3Cl)[C@@H](O)[C@@H](NC(=O)[C@@H](CC(C)C)NC)C(=O)N[C@@H](CC(N)=O)C(=O)N[C@H]5C(=O)N[C@H]3C(=O)N[C@H](C(=O)N[C@H](C(=O)O)c5cc(O)c(CNCP(=O)(O)O)c(O)c5-c5cc3ccc5O)[C@H](O)c3ccc(c(Cl)c3)O4)O[C@H](CO)[C@@H](O)[C@@H]2O)O[C@@H](C)[C@H]1O [Telavancin] (system: S. haemolyticus (CoNS)).
0.06 µg/mL

Find MIC (S. haemolyticus (CoNS)) for the entry CN[C@H](CC(C)C)C(=O)N[C@H]1C(=O)N[C@@H](CC(N)=O)C(=O)N[C@H]2C(=O)N[C@H]3C(=O)N[C@H](C(=O)N[C@H](C(=O)O)c4cc(O)cc(O)c4-c4cc3ccc4O)[C@H](O[C@H]3C[C@](C)(N)[C@@H](O)[C@H](C)O3)c3ccc(c(Cl)c3)Oc3cc2cc(c3O[C@@H]2O[C@H](CO)[C@@H](O)[C@H](O)[C@H]2O[C@H]2C[C@](C)(NCc3ccc(-c4ccc(Cl)cc4)cc3)[C@@H](O)[C@H](C)O2)Oc2ccc(cc2Cl)[C@H]1O [Oritavancin]
0.12 µg/mL

* * *

What MIC was measured for each of the following?
- Test system: Enterococci
- Assay type: cell-based
- Cond: E. faecalis MMX 1086, VanA VRE
The reply should contain only the number, in µg/mL.

What MIC value was documented for this compound, CN[C@H](CC(C)C)C(=O)N[C@H]1C(=O)N[C@@H](CC(N)=O)C(=O)N[C@H]2C(=O)N[C@H]3C(=O)N[C@H](C(=O)N[C@H](C(=O)O)c4cc(O)cc(O)c4-c4cc3ccc4O)[C@H](O[C@H]3C[C@](C)(N)[C@@H](O)[C@H](C)O3)c3ccc(c(Cl)c3)Oc3cc2cc(c3O[C@@H]2O[C@H](CO)[C@@H](O)[C@H](O)[C@H]2O[C@H]2C[C@](C)(NCc3ccc(-c4ccc(Cl)cc4)cc3)[C@@H](O)[C@H](C)O2)Oc2ccc(cc2Cl)[C@H]1O ?
1

What value of MIC has been reported for the following compound? CN(C)c1cc(NC(=O)CNC(C)(C)C)c(O)c2c1C[C@H]1C[C@H]3[C@H](N(C)C)C(O)=C(C(N)=O)C(=O)[C@@]3(O)C(O)=C1C2=O
0.12

Would you kindly share the measured MIC for CCCCCCCCCCNCCN[C@@]1(C)C[C@H](O[C@H]2[C@H](Oc3c4cc5cc3Oc3ccc(cc3Cl)[C@@H](O)[C@@H](NC(=O)[C@@H](CC(C)C)NC)C(=O)N[C@@H](CC(N)=O)C(=O)N[C@H]5C(=O)N[C@H]3C(=O)N[C@H](C(=O)N[C@H](C(=O)O)c5cc(O)c(CNCP(=O)(O)O)c(O)c5-c5cc3ccc5O)[C@H](O)c3ccc(c(Cl)c3)O4)O[C@H](CO)[C@@H](O)[C@@H]2O)O[C@@H](C)[C@H]1O ?
1

Entry CCCCCCCCCCNC1(C)CC(OC2C(Oc3c4cc5cc3Oc3ccc(cc3Cl)C(O)C3NC(=O)C(NC(=O)C5NC(=O)C(CC(N)=O)NC(=O)C(NC(=O)C(CC(C)C)NC)C(O)c5ccc(c(Cl)c5)O4)c4ccc(O)c(c4)-c4c(O)cc(O)cc4C(C(=O)O)NC3=O)OC(CO)C(O)C2O)OC(C)C1O (centres unmarked) : reported MIC = ?
0.06

Could you share which MIC value was measured for CC(=O)NC[C@H]1CN(c2ccc(N3CCOCC3)c(F)c2)C(=O)O1 ?
2
